system_under_test: UniProtKB P9WQ59
Sequence (P9WQ59 whole entry): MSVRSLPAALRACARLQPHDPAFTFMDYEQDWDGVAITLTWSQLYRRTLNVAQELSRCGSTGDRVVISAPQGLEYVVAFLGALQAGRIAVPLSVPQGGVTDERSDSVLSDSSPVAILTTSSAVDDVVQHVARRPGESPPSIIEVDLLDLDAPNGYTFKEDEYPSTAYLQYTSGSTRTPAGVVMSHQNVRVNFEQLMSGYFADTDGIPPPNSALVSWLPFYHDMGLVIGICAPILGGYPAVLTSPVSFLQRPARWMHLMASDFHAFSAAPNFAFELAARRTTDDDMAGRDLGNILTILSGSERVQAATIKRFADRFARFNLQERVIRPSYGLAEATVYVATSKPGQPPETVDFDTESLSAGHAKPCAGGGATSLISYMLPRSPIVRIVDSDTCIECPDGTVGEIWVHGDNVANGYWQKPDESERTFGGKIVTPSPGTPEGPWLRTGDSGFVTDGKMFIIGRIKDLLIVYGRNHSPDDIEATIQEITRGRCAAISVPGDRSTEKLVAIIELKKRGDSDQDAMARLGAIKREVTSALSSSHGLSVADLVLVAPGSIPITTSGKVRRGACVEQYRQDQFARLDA
experiment_notes: Fluorescence polarization aasay to screen for inhibitors that compete for the binding of FadD28 to a bisubstrate Measured in Biochemical System Using Plate Reader - 2147-01_Inhibitor_Dose_CherryPick_Activity.
Type: functional, Mycobacterium tuberculosis H37Rv
Calls of active or inactive are those of the source. The rule behind the calls is not given here.
parameter: AC50

Entry under review: CCc1cccc2c(C(=O)CN3C(=O)NC4(CCc5ccccc54)C3=O)c[nH]c12 (centres undefined) . Reported AC50? 29.2 µM (active)

Would you kindly repeat that for "O=C(O)c1cc(Cl)ccc1-c1ccc(/C=C/c2cc(C(F)(F)F)nc(O)n2)o1" ? > 100 µM (inactive)

Would you kindly repeat that for "CC(C)(C)NS(=O)(=O)c1ccc(NC(=O)CS(=O)(=O)Cc2ccccc2)cc1" ? > 100 µM (inactive)

Would you kindly repeat that for "O=C(NNS(=O)(=O)c1ccc(F)cc1)c1cc(Cl)ccc1O" ? > 100 µM (inactive)

Would you kindly repeat that for "CC(=O)NS(=O)(=O)c1ccc(/N=c2\ssc3c2-c2ccc(C)cc2NC3(C)C)cc1" ? > 100 µM (inactive)

Would you kindly repeat that for "Nc1ccc2nc3c(O)nc(S)nc3nc2c1" ? 46.1 µM (active)

Would you kindly repeat that for "CC(/C=C1\SC(=S)N(NS(=O)(=O)c2ccccc2)C1=O)=C\c1ccccc1" ? > 100 µM (inactive)

Would you kindly repeat that for "CC(C)=C1C(=O)NN(c2ccc(F)c(Cl)c2)C1=O" ? > 100 µM (inactive)

Would you kindly repeat that for COCCn1c(=S)[nH]c2sc3c(c2c1=O)CCC(C)C3 (centres undefined) ? 53.8 µM (active)

Ref: ChEMBL document CHEMBL1201862
